Biological target: Luciferin 4-monooxygenase (Photinus pyralis)
Test: qHTS screen for small molecules that inhibit ELG1-dependent DNA repair: SAR in Biochemical Luciferin Assay
Conditions: purified firefly luciferase, luciferin luminescence counter-screen; series mostly up to 57.5 µM
Inconclusive results are not listed. Active and inactive are the calls of the source. The call rests on the fitted dose curve; in most records, active means well fitted inhibition curve with a large enough effect; inconclusive means small, poorly fitted or top-dose-only effect; inactive means flat fitted curve, though single readings scatter.
Classes used: active, inactive

chemical smiles | class name
COc1ccc(C2=Nn3c(nnc3-c3ccccc3OC)SC2)cc1OC | inactive
O=c1[nH]c(-c2ccc(-c3cccc(Cl)c3)o2)nc2ccccc12 | active
Cc1csc(CNc2ncnc3ccc(-c4ccoc4)cc23)c1 | inactive
CN(Cc1ccco1)c1ncnc2ccc(-c3cccc(Cl)c3)cc12 | inactive
CC(/C=C/C(=O)NO)=C\[C@@H](C)C(=O)c1ccc(N(C)C)cc1 | inactive
O=C(Nc1ccccn1)c1sc2ccccc2c1Cl | active
CN(C)c1cccc(-c2ccnc(N3CCC(C(N)=O)CC3)n2)c1 | active
O=C(COc1ccccc1F)Nc1ccc(-c2nc3ccccc3s2)cc1 | inactive
Cc1nc(Nc2nc3ccccc3o2)nc2c1CCCC2 | active
c1cncc(CNc2ncnc3ccc(-c4ccoc4)cc23)c1 | inactive
